# Assayed Target: Human thrombin (Homo sapiens, UniProt P00734)
# Construct: Human thrombin (8.3 mg/ml) was obtained from Hematologic Technologies Inc; purchased Hematologic Technologies Inc. (Essex Junction, VT, USA)
# Protocol Description: Thrombin induced hydrolysis of specific substrates in buffer system
# Type: biochemical
# Conditions Used: chromogenic substrate (SCHR); read-out: Inhibition of thrombin activity (in buffer system) IC50
pIC50: −log10 of the molar value.
Please use 1 whenever pIC50 is not below 8, and -1 whenever it is.

# Substance Smiles, Assayed Target, Class
measured = [
    ("Cc1cc(OCC[n+]2ccc(N)cc2)cc(OS(=O)(=O)c2ccccc2Cl)c1.[I-]", "Human thrombin (Homo sapiens, UniProt P00734)", 1),
    ("CNC(=N)SCCCOc1cc(C)cc(OS(=O)(=O)c2ccccc2Cl)c1", "Human thrombin (Homo sapiens, UniProt P00734)", -1),
    ("Cc1cc(OCCCSC(=N)N)cc(OS(=O)(=O)c2ccccc2F)c1.I", "Human thrombin (Homo sapiens, UniProt P00734)", -1),
]

---

Each item that follows carries a reported pKi.
# Assayed Target: Human thrombin (Homo sapiens, UniProt P00734)
# Construct: Human thrombin (8.3 mg/ml) was obtained from Hematologic Technologies Inc; purchased Hematologic Technologies Inc. (Essex Junction, VT, USA)
# Protocol Description: Thrombin induced hydrolysis of specific substrates in buffer system
# Assay type: biochemical
# Conditions Used: chromogenic substrate Tosyl-Gly-Pro-Arg-p-nitroanilide; calculated assuming competitive inhibition, KM 9.44 µM; read-out: KI for thrombin inhibition in buffer system
pKi: −log10 of the molar value.

# Substance Smiles, pKi
data = [
    ("Cc1cc(OCCSC(=N)N)cc(OS(=O)(=O)c2ccccc2S(C)(=O)=O)c1.I", 8.82),
    ("Cc1cc(OCC[n+]2ccc(N)cc2)cc(OS(=O)(=O)c2ccc(Cl)cc2)c1.[I-]", 9.11),
    ("Cc1cc(OCCSC(=N)N)cc(OS(=O)(=O)c2ccccc2Cl)c1.I", 9.48),
    ("Cc1cc(OCC[n+]2ccc(N)cc2)cc(OS(=O)(=O)c2ccccc2F)c1.[I-]", 9.52),
    ("Cc1cc(OCC[n+]2ccc(N)cc2)cc(OS(=O)(=O)c2ccccc2S(C)(=O)=O)c1.[I-]", 9.12),
]
